# test_summary: in vivo
# applied_conditions: rat, po, 5 mg/kg

| compound | bioavailability |
| --- | --- |
| CN1CCC(c2ccc(C3c4ccc(O)cc4CCN3c3ccc(F)cc3)cc2)CC1 (stereo not drawn) | 64% |
| CC(C)N1CCN(c2ccc(C3c4ccc(O)cc4CCN3c3cccc(O)c3)cc2)CC1 (stereo not drawn) | 44% |
| Oc1ccc2c(c1)CCN(c1ccccc1)C2c1ccc(N2CCN3CCCCC3C2)cc1 (stereo not drawn) | 49% |

====

# test_summary: Maximum plasma concentration of compound in rat after peroral administration of 5 mg/kg
# Type: ADME, organism-based
# Parameters: dose 5 mg/kg, route oral
# applied_conditions: po
Assign fulfilled whenever Cmax does not fall below 30 nM; assign not fulfilled whenever it does.

| compound | class |
| --- | --- |
| CC(C)N1CCN(c2ccc(C3c4ccc(O)cc4CCN3c3cccc(O)c3)cc2)CC1 (stereo unspecified) | fulfilled |
| Oc1ccc2c(c1)CCN(c1ccccc1)C2c1ccc(OCCN2CCCCC2)cc1 (stereo unspecified) | fulfilled |
| Oc1ccc2c(c1)CC[C@H](c1ccccc1)[C@@H]2c1ccc(OCCN2CCCC2)cc1 [LASOFOXIFENE] | not fulfilled |
| CN1CCC(c2ccc(C3c4ccc(O)cc4CCN3c3ccc(F)cc3)cc2)CC1 (stereo unspecified) | not fulfilled |
| O=C(c1ccc(OCCN2CCCCC2)cc1)c1c(-c2ccc(O)cc2)sc2cc(O)ccc12 [RALOXIFENE] | not fulfilled |

====

# test_summary: Steady state volume of distribution in rat after administration of 1 mg/kg (iv) and 5 mg/kg (po)
# Format: ADME, organism-based
# applied_conditions: in vivo, read-out: Vss
The reader will find reported Vd values listed item by item below.

| compound | Vd (L/kg) |
| --- | --- |
| O=C(c1ccc(OCCN2CCCCC2)cc1)c1c(-c2ccc(O)cc2)sc2cc(O)ccc12 | 17.6 |
| CN1CCC(c2ccc(C3c4ccc(O)cc4CCN3c3ccc(F)cc3)cc2)CC1 (stereo unspecified) | 15.8 |
| CC(C)N1CCN(c2ccc(C3c4ccc(O)cc4CCN3c3cccc(O)c3)cc2)CC1 (stereo unspecified) | 5 |
| Oc1ccc2c(c1)CCN(c1ccccc1)C2c1ccc(N2CCN3CCCCC3C2)cc1 (stereo unspecified) | 9.2 |
| Oc1ccc2c(c1)CCN(c1ccccc1)C2c1ccc(OCCN2CCCCC2)cc1 (stereo unspecified) | 13.8 |
| Oc1ccc2c(c1)CC[C@H](c1ccccc1)[C@@H]2c1ccc(OCCN2CCCC2)cc1 | 14.7 |

====

# test_summary: Total clearance of compound in rat after administration of 1 mg/kg (iv) and 5 mg/kg (po)
# Assay type: ADME, organism-based
# applied_conditions: in vivo
Assign Yes whenever clearance does not fall below 50 mL/min/kg; assign No whenever it does.

| compound | class |
| --- | --- |
| O=C(c1ccc(OCCN2CCCCC2)cc1)c1c(-c2ccc(O)cc2)sc2cc(O)ccc12 [RALOXIFENE] | Yes |
| Oc1ccc2c(c1)CCN(c1ccccc1)C2c1ccc(N2CCN3CCCCC3C2)cc1 (stereo unspecified) | No |
| CN1CCC(c2ccc(C3c4ccc(O)cc4CCN3c3ccc(F)cc3)cc2)CC1 (stereo unspecified) | Yes |
| Oc1ccc2c(c1)CC[C@H](c1ccccc1)[C@@H]2c1ccc(OCCN2CCCC2)cc1 [LASOFOXIFENE] | Yes |
| Oc1ccc2c(c1)CCN(c1ccccc1)C2c1ccc(OCCN2CCCCC2)cc1 (stereo unspecified) | Yes |
| CC(C)N1CCN(c2ccc(C3c4ccc(O)cc4CCN3c3cccc(O)c3)cc2)CC1 (stereo unspecified) | No |
